Listing of entries alongside the reported pIC50.
target: Avi-KRAS WT (1-169) GppNHp/RAF1 RBD-3xFLAG (52-151) (Homo sapiens, UniProt P01116); construct: Avi-KRAS WT (1-169); assay: Raf1-KRAS WT-GppNHP disruption HTRF assay (Biological Example 1); format: binding; details: KRAS WT, GppNHp-loaded; Table 11
Sequence (P01116 1-169 isoform P01116-2): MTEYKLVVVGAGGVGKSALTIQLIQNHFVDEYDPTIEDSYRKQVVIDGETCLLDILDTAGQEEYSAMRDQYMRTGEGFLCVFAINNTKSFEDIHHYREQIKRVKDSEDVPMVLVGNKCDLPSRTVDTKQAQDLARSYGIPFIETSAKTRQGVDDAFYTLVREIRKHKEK
pIC50: −log10 of the molar value.

Solved cases below.
compound	result
CCC(=O)N1CC[C@@H](N(C)c2nc(OC[C@@]34CCCN3C[C@H](F)C4)nc3c(F)c(-c4ccc(F)c5sc(N)c(C#N)c45)c(C(F)(F)F)cc23)[C@H]1C [Compound 116]	6.00 to 7.00
N#Cc1c(N)sc2c(F)ccc(-c3c(C(F)(F)F)cc4c(N5C6COCC5C6)nc(OC[C@@]56CCCN5C[C@H](F)C6)nc4c3F)c12	6.00 to 7.00

Task: Given the entry CN(c1nc(OC[C@@]23CCCN2C[C@H](F)C3)nc2c(F)c(-c3ccc(F)c4sc(N)c(C#N)c34)c(C(F)(F)F)cc12)C1CC(F)(F)C1 , report its measured pIC50.
Result: 6.00 to 7.00

Task: Given the entry CN(c1nc(OCC23CCCN2CCC3)nc2c(F)c(-c3ccc(F)c4sc(N)nc34)c(C(F)(F)F)cc12)C1CC(O)C12CCCC2 (single isomer, unassigned) , report its measured pIC50.
Result: < 5.00

Task: Given the entry CN(c1nc(OC[C@@]23CCCN2C[C@H](F)C3)nc2c(F)c(-c3ccc(F)c4sc(N)c(C#N)c34)c(C(F)(F)F)cc12)[C@]1(CC#N)C[C@@H](O)C1 (atropisomer, axis not shown) , report its measured pIC50.
Result: 6.00 to 7.00
